- EXPERIMENTAL TARGET: T1, ECF17_1458
- T1 chain: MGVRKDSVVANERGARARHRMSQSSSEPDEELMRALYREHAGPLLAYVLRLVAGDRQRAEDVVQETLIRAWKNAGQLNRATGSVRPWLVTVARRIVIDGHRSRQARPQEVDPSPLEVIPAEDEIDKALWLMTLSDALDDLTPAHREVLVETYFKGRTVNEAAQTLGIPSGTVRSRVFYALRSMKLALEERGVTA
Each entry below lists one item and its recorded fold repression value.
I only need the number, thanks.

AS27_1331 (protein) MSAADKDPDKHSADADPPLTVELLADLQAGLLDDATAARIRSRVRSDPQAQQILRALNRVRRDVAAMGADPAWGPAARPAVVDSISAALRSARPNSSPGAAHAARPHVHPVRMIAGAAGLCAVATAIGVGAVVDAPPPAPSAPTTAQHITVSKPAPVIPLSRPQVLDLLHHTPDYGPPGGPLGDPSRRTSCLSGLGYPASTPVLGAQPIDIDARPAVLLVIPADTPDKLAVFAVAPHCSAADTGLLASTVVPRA : 2.79

Which fold repression value is on record for AS31_34 (protein) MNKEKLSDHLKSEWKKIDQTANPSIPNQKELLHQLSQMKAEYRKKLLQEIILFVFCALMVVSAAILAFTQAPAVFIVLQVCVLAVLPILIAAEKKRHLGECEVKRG ?
4.02
